# subject of test: NLRP3 inflammasome (Mus musculus)
# Construct: endogenous in cells
# Sequence (Q8R4B8 whole entry): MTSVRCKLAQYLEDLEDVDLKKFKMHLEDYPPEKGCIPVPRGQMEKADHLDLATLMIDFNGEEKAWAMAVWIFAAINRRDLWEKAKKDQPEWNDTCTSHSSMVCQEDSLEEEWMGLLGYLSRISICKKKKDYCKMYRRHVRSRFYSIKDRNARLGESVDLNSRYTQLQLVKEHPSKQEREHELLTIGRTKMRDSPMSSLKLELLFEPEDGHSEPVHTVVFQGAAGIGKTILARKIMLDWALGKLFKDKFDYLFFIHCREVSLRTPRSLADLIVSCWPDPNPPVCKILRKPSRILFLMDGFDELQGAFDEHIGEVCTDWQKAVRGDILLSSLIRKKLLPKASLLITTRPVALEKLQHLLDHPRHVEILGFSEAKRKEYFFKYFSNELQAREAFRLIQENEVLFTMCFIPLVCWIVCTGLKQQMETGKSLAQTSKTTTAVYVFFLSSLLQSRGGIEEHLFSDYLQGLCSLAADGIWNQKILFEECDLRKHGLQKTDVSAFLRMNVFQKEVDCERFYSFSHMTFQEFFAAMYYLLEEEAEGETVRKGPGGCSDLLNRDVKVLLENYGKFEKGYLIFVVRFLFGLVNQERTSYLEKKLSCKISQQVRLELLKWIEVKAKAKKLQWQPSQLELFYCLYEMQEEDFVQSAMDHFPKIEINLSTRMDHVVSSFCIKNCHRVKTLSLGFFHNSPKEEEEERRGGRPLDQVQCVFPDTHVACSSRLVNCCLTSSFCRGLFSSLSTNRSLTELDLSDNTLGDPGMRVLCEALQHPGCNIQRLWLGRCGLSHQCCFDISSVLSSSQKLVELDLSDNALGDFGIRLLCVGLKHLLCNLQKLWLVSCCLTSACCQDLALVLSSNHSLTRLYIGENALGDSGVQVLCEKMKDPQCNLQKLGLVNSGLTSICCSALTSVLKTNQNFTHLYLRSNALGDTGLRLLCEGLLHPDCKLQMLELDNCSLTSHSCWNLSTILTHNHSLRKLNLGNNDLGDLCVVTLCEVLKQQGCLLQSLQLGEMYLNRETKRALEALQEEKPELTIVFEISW
# run description: Inhibition of LPS and ATP induced NLRP3 inflammasome activation in BMDMs (IL-1β level)
# experimental conditions: read-out: IC50, inhibitory effect on activation of NLRP3 inflammasome
pIC50: −log10 of the molar value.
recorded metric: pIC50

In [3]: df
Out[3]:
                                   molecule  recorded_metric  assay_result
0  C=C1C(=O)O[C@@H]2[C@@H]3[C@]4(CC[C@@]3(C)OC)C[C@]4(C)CC[C@@H]12 [Compound 8]            pIC50        > 7.40
1  C=C1C(=O)O[C@@H]2[C@H]3C(C)=CC[C@]34C[C@]4(C)CC[C@@H]12 [Compound 2]            pIC50        > 7.40
2  C=C1C(=O)O[C@@H]2[C@H]3C(C)=CC[C@@]34O[C@@]4(C)CC[C@@H]12 [arglabin, reference compound]            pIC50        > 7.40
3  CO[C@]1(C)[C@H](O)C[C@@]23C[C@]2(C)CC[C@@H]2[C@H](OC(=O)[C@H]2CN(C)C)[C@@H]13 [Compound 25]            pIC50  7.10 to 7.40
4  CN(C)C[C@@H]1C(=O)O[C@H]2[C@H]1CC[C@@]1(C)C[C@]13CC[C@@](C)(F)[C@H]23 [Compound 27]            pIC50  7.10 to 7.40
5  C=C1C(=O)O[C@@H]2[C@@H]3[C@]4(CC[C@@]3(C)O)C[C@]4(C)CC[C@@H]12 [Compound 1]            pIC50        > 7.40
6  C=C1C(=O)O[C@@H]2C3=C(C)CC[C@]34C[C@]4(C)CC[C@@H]12 [Compound 6]            pIC50        > 7.40
7  CC1=CC[C@@]23C[C@]2(C)CC[C@H]2[C@H](CN(C)C)C(=O)O[C@@H]2C13 (stereo partly shown) [Compound 28]            pIC50  7.00 to 7.10
8  CC1=CC[C@@]23C[C@]2(C)CC[C@@H]2[C@H](OC(=O)[C@H]2CN(C)C)[C@@H]13 [Compound 24]            pIC50  7.10 to 7.40
9  C=C1C(=O)O[C@@H]2[C@@H]3[C@]4(CC[C@@]3(C)OC(=O)CC)C[C@]4(C)CC[C@@H]12 [Compound 7]            pIC50        > 7.40

Reference source for all entries: patent US20240124409A1
